Numbers sourced from patent US10827753B2.

# System: Meloidogyne incognita
# Run Description: M. incognita miniaturized greenhouse assay on cucumber seedlings (root galling)
# Format: in vivo
# Set-up: key: mean of 3 gall ratings: 0=0-5%, 1=6-20%, 2=21-50%, 3=51-100% root galled
# Stated Conditions: 1 ppm; Table 1B test d
1 ppm gall ratings reference
Give only the figure.

[
  {
    "Compound": "Brc1ccc(-c2cnc(-c3cccs3)o2)cc1",
    "Measured Value": 0.33
  }
]

Note: attention shifts to another entry.
Entry CNC(=O)O/N=C(\SC)C(=O)N(C)C [Oxamyl, oxamyl, reference compound] : reported 1 ppm gall ratings = ?
1.33

---

# System: root knot nematode (RKN)
# Run Description: RKN greenhouse soil assay on cucumber plants
# Type: in vivo, Meloidogyne incognita
# Stated Conditions: Radex 1 mg/kg; emulsifiable concentrate, 6.25% active ingredient by weight
Observation Type: percent control (galling reduction) relative to the appropriate control blank treatment (%)
All answers are understood in %, so give the number only.

Record excerpt, results attached:
[
  {
    "Compound": "Brc1ccc(-c2noc(-c3cccs3)n2)cc1",
    "Measured Value": 86
  },
  {
    "Compound": "Clc1ccc(-c2noc(-c3cccs3)n2)cc1",
    "Measured Value": 80
  }
]

Continue with the next compound.
Which percent control (galling reduction) relative to the appropriate control blank treatment value is on record for CCOP(=O)(NC(C)C)Oc1ccc(SC)c(C)c1 (stereo not drawn) [Fenamiphos, fenamiphos, reference compound] ?
99

---

# System: Meloidogyne incognita
# Run Description: Summer field evaluation of pre-plant incorporated compounds on squash
# Format: in vivo
# Stated Conditions: 4 kg (kg/ha) PPI, squash
Observation Type: top wgt (lbs) 31 DAP
The reply should contain only the number, in lbs.

Answered cases to consult:
[
  {
    "Compound": "Clc1ccc(-c2noc(-c3ccco3)n2)cc1 [compound 5523]",
    "Measurement Target": "Meloidogyne incognita",
    "Observation Type": "top wgt (lbs) 31 DAP",
    "Measured Value": 1.31
  },
  {
    "Compound": "Clc1ccc(-c2nsc(-c3ccco3)n2)c(Cl)c1 [compound 5960]",
    "Measurement Target": "Meloidogyne incognita",
    "Observation Type": "top wgt (lbs) 31 DAP",
    "Measured Value": 1.58
  },
  {
    "Compound": "Cc1cc(Cl)ccc1-c1noc(-c2ccco2)n1 [compound 5823]",
    "Measurement Target": "Meloidogyne incognita",
    "Observation Type": "top wgt (lbs) 31 DAP",
    "Measured Value": 1.45
  },
  {
    "Compound": "Cc1cc(Cl)ccc1-c1nsc(-c2ccco2)n1 [compound 5938]",
    "Measurement Target": "Meloidogyne incognita",
    "Observation Type": "top wgt (lbs) 31 DAP",
    "Measured Value": 1.60
  }
]

Please turn your attention to the following entry.
Entry CNC(=O)O/N=C(\SC)C(=O)N(C)C [Oxamyl, oxamyl, reference compound] has what top wgt (lbs) 31 DAP?
1.16

---

Entries and their 1 ppm gall rating
# Test system: Meloidogyne incognita
# Run Description: M. incognita miniaturized greenhouse assay on cucumber seedlings (root galling)
# Type: in vivo
# Parameters: key: mean of 3 gall ratings: 0=0-5%, 1=6-20%, 2=21-50%, 3=51-100% root galled
# Stated Conditions: 1 ppm; Table 1C test a
Marks after values point to notes of the source that are not given here.

Before answering, review these 3 worked examples.
[
  {
    "Compound": "Brc1ccc(-c2cnc(-c3cccs3)o2)cc1 [compound 4776]",
    "Measurement Target": "Meloidogyne incognita",
    "1 ppm gall rating": "1 (1=6-20%)"
  },
  {
    "Compound": "Cc1occc1-c1nc(-c2ccc(Cl)cc2)no1 [compound 5867]",
    "Measurement Target": "Meloidogyne incognita",
    "1 ppm gall rating": "1^a (1=6-20%)"
  },
  {
    "Compound": "CNC(=O)O/N=C(\\SC)C(=O)N(C)C [Oxamyl, oxamyl, reference compound]",
    "Measurement Target": "Meloidogyne incognita",
    "1 ppm gall rating": 1.33
  }
]

Give its 1 ppm gall rating value. Item: COc1ccc(-c2noc(-c3ccoc3C)n2)cc1 [compound 5869]
1^a (1=6-20%)

I have this compound here, c1ccc(-c2noc(-c3cccs3)n2)cc1 [compound 1822] , and I need its recorded 1 ppm gall rating.
0 (0=0-5%)

Please look up its 1 ppm gall rating: Clc1ccc(-c2noc(-c3ccsc3)n2)cc1 [compound 5885]
1^a (1=6-20%)

---

# Tested on: sting (Belonolaimus longicaudatus) nematodes
# Run Description: Sting nematode bench top soil assay
# Format: in vivo
# Stated Conditions: 4 kg/ha
Observation Type: Number of nematodes recovered from treated soil after 3 days incubation with the compound

[
  {
    "Line Notation": "Fc1ccc(-c2cnc(-c3cccs3)o2)cc1",
    "Measured Value": 7
  },
  {
    "Line Notation": "c1ccc(-c2cnc(-c3cccs3)o2)cc1",
    "Measured Value": 13
  },
  {
    "Line Notation": "Brc1ccc(-c2cnc(-c3cccs3)o2)cc1",
    "Measured Value": 19
  }
]

Continue with the next compound.
Looking for the measured Number of nematodes recovered from treated soil after 3 days incubation with the compound of "Clc1ccc(-c2nnc(-c3cccs3)o2)cc1" , can you help?
47

---

# Test system: root knot nematode (RKN)
# Run Description: RKN greenhouse soil assay on cucumber plants
# Format: in vivo, Meloidogyne incognita
# Stated Conditions: Radex 1 mg/kg; emulsifiable concentrate, 6.25% active ingredient by weight
Catalogue of percent control (galling reduction) relative to the appropriate control blank treatment values
Please answer in the form of a number followed by its unit of measurement.

Fill in: percent control (galling reduction) relative to the appropriate control blank treatment of "c1ccc(-c2noc(-c3cccs3)n2)cc1" is ___
98%

If you can, please state the reported percent control (galling reduction) relative to the appropriate control blank treatment value of "Fc1ccc(-c2noc(-c3cccs3)n2)cc1" .
96%

Data request, read-out percent control (galling reduction) relative to the appropriate control blank treatment, for "Brc1ccc(-c2noc(-c3ccco3)n2)cc1"
88%

Query: percent control (galling reduction) relative to the appropriate control blank treatment; subject: "Cc1cc(Br)ccc1-c1noc(-c2ccco2)n1"
96%

// percent control (galling reduction) relative to the appropriate control blank treatment lookup, key: "Clc1ccc(-c2noc(-c3ccco3)n2)cc1"
86%

---

# System: Meloidogyne incognita
# Run Description: Summer field evaluation of pre-plant incorporated compounds on squash
# Type: in vivo
# Stated Conditions: 4 kg (kg/ha) PPI, squash
# Procedure: Test plots of 33 cm diameter holes were bored 41 cm deep into clay soil and filled with a mixture of 80% sand and 20% silt loam soil. Technical compound for each treatment was dissolved in 50 ml acetone containing 250 ul of Triton X-100 surfactant. This solution was added to 450 ml water and poured onto 95 liters of sand/soil mixture in a rotating drum mixer. While continuing to rotate the mixing drum 66 grams of chopped, galled, tomato roots was added and thoroughly distributed. […]
Observation Type: feeder root (3 = ave) 31 DAP
Please reply with the number alone, leaving off any unit.

[
  {
    "Compound": "Cc1cc(Cl)ccc1-c1nsc(-c2ccco2)n1",
    "Measurement Target": "Meloidogyne incognita",
    "Observation Type": "feeder root (3 = ave) 31 DAP",
    "Measured Value": 2.7
  },
  {
    "Compound": "CNC(=O)O/N=C(\\SC)C(=O)N(C)C [Oxamyl, oxamyl, reference compound]",
    "Measurement Target": "Meloidogyne incognita",
    "Observation Type": "feeder root (3 = ave) 31 DAP",
    "Measured Value": 3.0
  },
  {
    "Compound": "Clc1ccc(-c2noc(-c3ccco3)n2)cc1",
    "Measurement Target": "Meloidogyne incognita",
    "Observation Type": "feeder root (3 = ave) 31 DAP",
    "Measured Value": 3.0
  },
  {
    "Compound": "Clc1ccc(-c2nsc(-c3ccco3)n2)c(Cl)c1",
    "Measurement Target": "Meloidogyne incognita",
    "Observation Type": "feeder root (3 = ave) 31 DAP",
    "Measured Value": 3.3
  }
]

Read the next record carefully.
What does the data say about its feeder root (3 = ave) 31 DAP? Entry: "Cc1cc(Cl)ccc1-c1noc(-c2ccco2)n1"
2.7
